target: UniProt:P07858; assay: Noncompetitive inhibition of human recombinant cathepsin B exopeptidase activity using Abz-Gly-Ile-Val-Arg-Ala-Lys(Dnp)-OH substrate
OUTCOME_MEASURE: Ki (µM)

>>> print(df.to_string())
                             chemical_string  outcome_measure  assay_value
 0    O=[N+]([O-])c1ccc(NCc2ccccn2)c2ncccc12               Ki           47
 1  O=[N+]([O-])c1cc(CN2CCN(Cc3cccnc3)CC2)c(O)c2ncccc12               Ki          364
 2  CCOC(=O)[C@@H]1CCCC[C@@H]1NCc1cc([N+](=O)[O-])c2cccnc2c1O               Ki          130
 3         CCNCc1cc([N+](=O)[O-])c2cccnc2c1O               Ki          136
 4    O=[N+]([O-])c1ccc(NCc2ccccc2)c2ncccc12               Ki          364
 5      O=[N+]([O-])c1ccc(N2CCOCC2)c2ncccc12               Ki          155
 6   CC1CCN(c2ccc([N+](=O)[O-])c3cccnc23)CC1               Ki           24
 7  CCOC(=O)N1CCN(Cc2cc([N+](=O)[O-])c3cccnc3c2O)CC1               Ki          156
 8             Nc1ccc([N+](=O)[O-])c2ccccc12               Ki          147
 9  O=[N+]([O-])c1cc(CN2CCN(Cc3ccncc3)CC2)c(O)c2ncccc12               Ki          162
10      O=[N+]([O-])c1ccc(N2CCOCC2)c2ccccc12               Ki           85
11  CN(CCc1ccccc1)c1ccc([N+](=O)[O-])c2cccnc12               Ki          350
12         Nc1c(Br)cc([N+](=O)[O-])c2ccccc12               Ki          212
13  C[C@@H]1CCCCN1Cc1cc([N+](=O)[O-])c2cccnc2c1O               Ki          243
14       O=[N+]([O-])c1ccc(N2CCCC2)c2ccccc12               Ki           34
15    CN(CC#N)Cc1cc([N+](=O)[O-])c2cccnc2c1O               Ki          172
16  O=[N+]([O-])c1cc(CNCc2ccccc2)c(O)c2ncccc12               Ki          154
17  O=[N+]([O-])c1cc([N+](=O)[O-])c2cccnc2c1O               Ki          146
18  CCOC(=O)C1CCN(c2ccc([N+](=O)[O-])c3cccnc23)CC1               Ki           38
19       N#CCNCc1cc([N+](=O)[O-])c2cccnc2c1O               Ki          426
